As a worked illustration, we turn to IC50 data collected for Cytochrome P450 3A4 (Homo sapiens, UniProt P08684).
Reported Endpoint: IC50

{"columns": ["Compound", "Study Target", "Reported Endpoint", "Meas Value"],
 "data": [
  ["C[C@@]12[C@H]3CC=C[C@]1(O[C@@H]1O[C@H](CO)[C@@H](O)[C@H](O)[C@H]1O)C(=O)O[C@@H]2C[C@]1(O)C(=O)O[C@H](c2ccoc2)C[C@@]31C [FIBRAURETINOSIDE A]", "Cytochrome P450 3A4 (Homo sapiens, UniProt P08684)", "IC50", "> 100 µM"],
  ["COc1cc2c(cc1O)-c1cc3ccc(OC)c(OC)c3c[n+]1CC2", "Cytochrome P450 3A4 (Homo sapiens, UniProt P08684)", "IC50", "30.6 µM"],
  ["C[C@@]12[C@H]3CC=C[C@@]1(O[C@@H]1O[C@H](CO)[C@@H](O)[C@H](O)[C@H]1O)C(=O)O[C@@H]2C[C@]1(O)C(=O)O[C@H](c2ccoc2)C[C@@]31C [EPI-FIBRAURETINOSIDE A]", "Cytochrome P450 3A4 (Homo sapiens, UniProt P08684)", "IC50", "> 100 µM"],
  ["C[C@@]12C[C@H](c3ccoc3)OC(=O)C1=CC[C@]1(C)[C@H]2[C@H]2C=C[C@]1(O[C@@H]1O[C@H](CO)[C@@H](O)[C@H](O)[C@H]1O)C(=O)O2 [FIBLEUCINOSIDE]", "Cytochrome P450 3A4 (Homo sapiens, UniProt P08684)", "IC50", "> 100 µM"],
  ["COc1cc2c(cc1OC)-c1cc3ccc(OC)c(OC)c3c[n+]1CC2 [PALMATINE CHLORIDE]", "Cytochrome P450 3A4 (Homo sapiens, UniProt P08684)", "IC50", "0.9 µM"],
  ["C[C@H](C[C@@H](O)[C@](C)(O)[C@H]1CC[C@@]2(O)C3=CC(=O)[C@@H]4C[C@@H](O[C@@H]5O[C@H](CO)[C@@H](O)[C@H](O)[C@H]5O)[C@@H](O)C[C@]4(C)[C@H]3CC[C@]12C)C(C)(C)O [FIBRAURECDYSIDE A]", "Cytochrome P450 3A4 (Homo sapiens, UniProt P08684)", "IC50", "> 100 µM"],
  ["C[C@H](C[C@@H](O)[C@](C)(O)[C@H]1CC[C@@]2(O)C3=CC(=O)[C@@H]4C[C@@H](O)[C@@H](O)C[C@]4(C)[C@H]3CC[C@]12C)C(C)(C)O", "Cytochrome P450 3A4 (Homo sapiens, UniProt P08684)", "IC50", "> 100 µM"],
  ["C[C@@]12C[C@H](c3ccoc3)OC(=O)C1=CC[C@]1(C)[C@H]2[C@@H]2OC(=O)[C@@]1(O[C@@H]1O[C@H](CO)[C@@H](O)[C@H](O)[C@H]1O)[C@H]1O[C@@H]21 [FIBRAURINOSIDE]", "Cytochrome P450 3A4 (Homo sapiens, UniProt P08684)", "IC50", "> 100 µM"]
]}
